Tested on: Molm13
assay-text: cell viability relative to DMSO control (bortezomib = 0%); higher = less growth inhibition
measurement-context: 10 nM; 72 h
Where a name gives a salt, the structure may show the parent alone.
readout-type: cell viability (%)
Hi! Could you send only the number? It should be in %, unit omitted.

// known answers, use as guide
compound="C[C@@H]1O[C@@H](OC[C@H]2O[C@@H](Oc3c(-c4ccc(O)c(O)c4)oc4cc(O)cc(O)c4c3=O)[C@H](O)[C@@H](O)[C@@H]2O)[C@H](O)[C@H](O)[C@H]1O [Rutin]" readout_type="cell viability" test_value=103
compound="CCCCCN(CCCOC)C(=O)C(CCC(=O)O)NC(=O)c1ccc(Cl)c(Cl)c1 (stereo not given) [Loxiglumide]" readout_type="cell viability" test_value=85.9
compound="C=CC(=O)Nc1cc2c(Nc3ccc(F)c(Cl)c3)ncnc2cc1OCCCN1CCOCC1 [Canertinib (hydrochloride)]" readout_type="cell viability" test_value=93.9

Q: Sample C#Cc1cccc(Nc2ncnc3cc(OCCOC)c(OCCOC)cc23)c1 [Erlotinib hydrochloride] — what was its cell viability?
A: 108

Q: What does the data say about its cell viability? Entry: Cc1nc(Nc2ncc(C(=O)Nc3c(C)cccc3Cl)s2)cc(N2CCN(CCO)CC2)n1 [Dasatinib monohydrate]
A: 80.8

---

Test system: Mv4-11
assay-text: cell viability relative to DMSO control (bortezomib = 0%); higher = less growth inhibition
measurement-context: 10 nM; 72 h
readout-type: cell viability (%)
Field: numeric (%). Do not append units.

// below: answered molecules
molecule="O=C(O)CCC(=O)Nc1ccc(Br)cn1 [Bikinin]" target_desc=Mv4-11 test_value=99.9
molecule=O=C(c1ccc(/C=C/c2n[nH]c3ccccc23)cc1)N1CCNCC1 target_desc=Mv4-11 test_value=92.9

Note: attention shifts to another entry.
Q: Report cell viability for Nc1ncnc2c1ncn2C1OC(COP(=O)(O)O)C(O)C1O (stereo not drawn) [Adenosine 5'-monophosphate monohydrate] tested on Mv4-11.
A: 97.2

---

Tested on: Molm13
assay-text: cell viability relative to DMSO control (bortezomib = 0%); higher = less growth inhibition
measurement-context: 10 nM; 72 h
readout-type: cell viability (%)
Number only, in %; omit the unit.

Q: Name the recorded cell viability for C=CC(=O)Nc1cc(Nc2nccc(-c3c[nH]c4ccccc34)n2)c(OC)cc1N(C)CCN(C)C .
A: 104

---

Tested on: Molm13
assay-text: cell viability relative to DMSO control (bortezomib = 0%); higher = less growth inhibition
measurement-context: 10 nM; 72 h
Counter-ions that a name gives are not always drawn.
Items are presented alongside their recorded cell viability.

Worked cases, answers included:
molecule="COc1cc2c(Oc3ccc4[nH]c(C)cc4c3F)ncnc2cc1OCCCN1CCCC1 [Cediranib (AZD2171)]" test_value=107%
molecule=COc1cc(Nc2ncc(F)c(Nc3ccc4c(n3)NC(=O)C(C)(C)O4)n2)cc(OC)c1OC test_value=105%
molecule="Cc1cncc2cccc(S(=O)(=O)N3CCCNC[C@@H]3C)c12 [(S)-H-1152 (hydrochloride)]" test_value=100%

Continue with the molecule presented below.
Q: Would you kindly share the measured cell viability for O=C(c1ccc(F)c(F)c1Nc1ccc(I)cc1F)N1CC(O)([C@@H]2CCCCN2)C1 [Cobimetinib] ?
A: 87.1%

Where do the numbers come from? From the supplement of paper PMC8699584.
